system-tested: recombinant JAK2 (amino acids 831-1132) (Homo sapiens (Human), UniProt O60674)
Sequence (O60674 831-1132): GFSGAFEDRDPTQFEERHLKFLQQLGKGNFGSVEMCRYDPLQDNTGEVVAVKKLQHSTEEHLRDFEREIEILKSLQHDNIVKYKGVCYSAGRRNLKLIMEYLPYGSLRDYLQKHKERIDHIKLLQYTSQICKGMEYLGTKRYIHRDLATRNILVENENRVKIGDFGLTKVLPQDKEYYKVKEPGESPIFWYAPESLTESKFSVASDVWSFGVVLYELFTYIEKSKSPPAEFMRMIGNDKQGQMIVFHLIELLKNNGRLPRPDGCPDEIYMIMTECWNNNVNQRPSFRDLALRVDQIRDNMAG
assay-comment: Enzyme inhibition studies, JAK2 (5 mM ATP, Caliper)
Type: biochemical
pIC50: −log10 of the molar value.
quantity-measured: pIC50

Below, each entry is followed by its recorded pIC50 result.
*Q* # pIC50 lookup, item CC[C@H](C(=O)Nc1cccc2c(-c3nc(Nc4cccc(S(C)(=O)=O)c4F)ncc3C)c[nH]c12)N1CCN(C)CC1C (stereo in doubt) [Example 60]
*A* 4.92

*Q* # pIC50 lookup, item `COC[C@@H](C(=O)Nc1cccc2c(-c3nc(Nc4cccc(S(C)(=O)=O)c4F)ncc3C)c[nH]c12)N1C[C@H](C)N(C)[C@@H](C)C1`
*A* < 4.52

*Q* # pIC50 lookup, item `CC[C@@H](C(=O)Nc1cccc2c(-c3nc(Nc4cccc(S(C)(=O)=O)c4F)ncc3F)c[nH]c12)N1C[C@H](C)N(C)[C@@H](C)C1`
*A* < 4.52

*Q* # pIC50 lookup, item `COC[C@H](C(=O)Nc1cccc2c(-c3nc(Nc4cccc(S(C)(=O)=O)c4F)ncc3F)c[nH]c12)N1C[C@@H](C)N[C@H](C)C1`
*A* 5.71

*Q* # pIC50 lookup, item CC[C@@H](C(=O)Nc1cccc2c(-c3nc(Nc4cccc(S(C)(=O)=O)c4F)ncc3C)c[nH]c12)N1CCN(C)CC1C (stereo in doubt) [Example 50]
*A* < 4.52

Please turn your attention to the following entry.
*Q* # pIC50 lookup, item `Cc1cnc(Nc2cccc(S(C)(=O)=O)c2F)nc1-c1c[nH]c2c(NC(=O)[C@H](C)N3CCN(C)C[C@@H]3C)cccc12`
*A* < 4.52
